# Test description: NCI Yeast Anticancer Drug Screen. Data for the cln2 rad14 strain (AID 165);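 further: 0% = growth equal to vehicle treated cultures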
# Test context: S. cerevisiae cln2 rad14 strain, at 50.0 µM (retest, dose inferred, filed as 5.0), stronger effect = higher value
Compounds without any hit were thinned out: in the full panel of roughly 79,000, 15% have a hit.
Recorded growth inhibition determines the group label, using lower band (below 20%), central band (20% to below 60%), upper band (60% or more)

These solved cases illustrate the format of a correct answer.
{"Compound": "COc1ccc(S(=O)(=O)N/N=C\\c2cc([N+](=O)[O-])cc(I)c2O)c(OC)c1OC", "Discrete label": "central band"}
{"Compound": "Nc1nc(N)c2c(n1)CCC(S(=O)(=O)c1ccc3ccccc3c1)C2 (stereo unspecified)", "Discrete label": "lower band"}
{"Compound": "O=C1c2c(O)cccc2-c2nn(CCNCCO)c3ccc(NCCNCCO)c1c23", "Discrete label": "lower band"}
{"Compound": "Nc1ccc2c(=S)c3ccccc3[nH]c2c1", "Discrete label": "upper band"}
{"Compound": "CCOC(=O)c1csc(Br)n1", "Discrete label": "central band"}

Here's the next entry for you.
Query :: Hi there! Could you help me figure out the category for CC(=O)C1(O)Cc2c(O)c3c(c(O)c2C(OC2CC(N)C(O)C(C)O2)C1)C(=O)c1ccccc1C3=O (stereo unspecified) please?
Result :: central band

* * *

# Test description: NCI Yeast Anticancer Drug Screen. Data for the mlh1 strain (AID 171);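 further: 0% = growth of vehicle-treated control cultures of the same strain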
# Test context: S. cerevisiae mlh1 strain growth inhibition; at 100.0 µM
Compounds without any hit were thinned out: in the full panel of roughly 79,000, 15% have a hit. Calls of active or inactive are those of the source. No stated cut-off is given here; in the data, active means growth inhibition above about 70%; inactive means the rest.
In this exercise, the only acceptable responses are class 1 = active, class 0 = inactive

{"Molecule": "CCN(CC)CCNC(=O)c1nn(-c2ccc(Cl)cc2)c2c1CCc1cc(OC)ccc1-2", "Discrete label": "class 1"}
{"Molecule": "O=NN(CCCl)C(=O)NCCCl", "Discrete label": "class 0"}
{"Molecule": "N#CC(=C1C=CC(=NO)C=C1)c1ccccc1", "Discrete label": "class 1"}

Query :: Which outcome was assigned to O=C1OC2C(O)COC2(OCc2c[nH]c3ccccc23)C1O (stereo unspecified) (tested in a mixture with another compound) in this test?
Result :: class 1

Query :: Which outcome was assigned to `O=Nn1c2ccccc2c2cc([N+](=O)[O-])ccc21` in this test?
Result :: class 1

Query :: Which outcome was assigned to `C=Cc1cnc([N+](=O)[O-])n1C` in this test?
Result :: class 1

Query :: Which outcome was assigned to `CCCCCCCCN1C(=O)c2ccccc2C1=O` in this test?
Result :: class 0

Query :: Which outcome was assigned to `BrCc1ccccc1C(c1ccccc1)c1ccccc1` in this test?
Result :: class 1

Query :: Which outcome was assigned to `O=C(/C=C\c1ccc([N+](=O)[O-])o1)Nc1ccc(Cl)cc1` in this test?
Result :: class 1

Query :: Which outcome was assigned to COc1cc([C@@H]2c3cc4c(cc3[C@@H](OC3OC5COC(C)OC5C(O)C3O)[C@H]3COC(=O)[C@H]23)OCO4)cc(OC)c1O (stereo partly specified) in this test?
Result :: class 0

Query :: Which outcome was assigned to `CC(C)c1[nH]nc(C(N)=O)c1N=NN(C)C` in this test?
Result :: class 0

Query :: Which outcome was assigned to `S=c1cn[nH]c2ccc(Br)cc12` in this test?
Result :: class 1

Query :: Which outcome was assigned to `C=C1N(C)c2ccc(Cl)cc2C1(C)C` in this test?
Result :: class 1

Query :: Which outcome was assigned to `O=C1CC(=O)N(C2CCCCC2)C(=O)N1c1ccccc1S(=O)(=O)Oc1ccccc1` in this test?
Result :: class 0

Query :: Which outcome was assigned to CC(=O)C1(O)Cc2c(O)c3c(c(O)c2C(OC2CC(N)C(O)C(C)O2)C1)C(=O)c1ccccc1C3=O (stereo unspecified) in this test?
Result :: class 1

Query :: Which outcome was assigned to Cc1ccc(S(=O)(=O)Nc2ccc3c(c2)C(O)c2ccccc2-3)cc1 (stereo unspecified) in this test?
Result :: class 0

Query :: Which outcome was assigned to `CCCCCCSc1nc(COC(=O)NC)c(COC(=O)NC)n1C` in this test?
Result :: class 1

Query :: Which outcome was assigned to Nc1nc(F)nc2c1ncn2C1OC(COP(=O)(O)O)C(O)C1O (stereo unspecified) in this test?
Result :: class 0

Query :: Which outcome was assigned to `COc1ccc2c(c1)[nH]c1c(/C=C/c3ccccc3)nccc12` in this test?
Result :: class 1

Query :: Which outcome was assigned to `OB(O)c1ccccc1C#Cc1ccccc1B(O)O` in this test?
Result :: class 1

Query :: Which outcome was assigned to `CN(C)CCNc1cccc2sc3ccc(O)cc3c(=O)c12` in this test?
Result :: class 0

Query :: Which outcome was assigned to `O=C(Nc1cccc(C(F)(F)F)c1)Oc1ccc(Cl)cc1C(=O)c1ccccc1` in this test?
Result :: class 1

Query :: Which outcome was assigned to `Nc1ccc2c(=S)c3ccccc3[nH]c2c1` in this test?
Result :: class 0

Query :: Which outcome was assigned to `C/C=C/[P+](c1ccccc1)(c1ccccc1)c1ccccc1` in this test?
Result :: class 1

Query :: Which outcome was assigned to `O=C(NCCCCCN1CCC2(CCCCC2)CC1)C(C1CCCCC1)C1CCCCC1` in this test?
Result :: class 1

Query :: Which outcome was assigned to `CN(C)Cc1cccc(CN(C)C)[c]1[Sn]([Br])([c]1ccccc1)[c]1ccccc1` in this test?
Result :: class 1

Query :: Which outcome was assigned to `Cc1cccc2c1N=C(C(F)(F)F)CC2=O` in this test?
Result :: class 0

Query :: Which outcome was assigned to `COc1cc(/C=C/c2sc3ccccc3[n+]2C)ccc1N(C)C` in this test?
Result :: class 1

Query :: Which outcome was assigned to `COC(=O)c1oc([N+](=O)[O-])c(Cl)c1Cl` in this test?
Result :: class 1

Query :: Which outcome was assigned to `OCCNCCOc1ccc(/C(=C(/Cl)c2ccccc2)c2ccccc2)cc1` in this test?
Result :: class 1

* * *

Quick list: growth inhibition per entry.
# Test description: NCI Yeast Anticancer Drug Screen. Data for the rad14 strain (AID 159);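 further: 0% = growth of vehicle-treated control cultures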
# Test context: S. cerevisiae rad14 strain growth inhibition; at 1.2 µM; stronger effect = higher value
Compounds without any hit were thinned out: in the full panel of roughly 79,000, 15% have a hit. Calls of active or inactive are those of the source. No stated cut-off is given here; in the data, active means growth inhibition above about 70%; inactive means the rest.

Solved cases below.
{"Compound": "Cc1cc(Cl)nc2nc(Cl)c(N)cc12", "Result value": "1% (inactive)"}
{"Compound": "O=C1C=CC(=O)N1c1ccc(I)cc1", "Result value": "11% (inactive)"}
{"Compound": "CC(=O)C1(O)Cc2c(O)c3c(c(O)c2C(OC2CC(N)C(O)C(C)O2)C1)C(=O)c1ccccc1C3=O (configuration not stated)", "Result value": "-4% (inactive)"}
{"Compound": "N#C/C(=C1C=C(Br)/C(=N\\O)C=C\\1Cl)c1cccc2ccccc12", "Result value": "-14% (inactive)"}
{"Compound": "N#C/C(=C1C=C/C(=N/O)c2ccccc2/1)c1ccccc1", "Result value": "-3% (inactive)"}
{"Compound": "CCOC(=O)CNC(=O)c1[nH]cnc1/N=N/N(C)C", "Result value": "2% (inactive)"}
{"Compound": "BrCc1ccccc1C(c1ccccc1)c1ccccc1", "Result value": "3% (inactive)"}
{"Compound": "S=c1nc(Cl)cc2[nH]c(Cl)cn12", "Result value": "1% (inactive)"}

Kindly note the recorded growth inhibition for `O=[N+]([O-])c1cc(S(=O)(=O)Nc2ccccc2)ccc1Cl` , which is -4% (inactive)

Kindly note the recorded growth inhibition for CC1=CCC(C(C)(C)c2ccc(O)cc2)CC1 (configuration not stated) , which is -8% (inactive)

Kindly note the recorded growth inhibition for `CC(C)c1cccc(O)c(=O)c1` , which is 6% (inactive)

Kindly note the recorded growth inhibition for `O=C1CC(=O)N(C2CCCCC2)C(=O)N1c1ccccc1S(=O)(=O)Oc1ccccc1` , which is -18% (inactive)

* * *

# Test description: NCI Yeast Anticancer Drug Screen. Data for the wt2 strain (AID 169);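 further: 0% = growth of vehicle-treated yeast cultures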
# Test context: S. cerevisiae wt2 strain growth inhibition; at 11.0 µM; stronger effect = higher value
About 79,000 compounds went through this panel and 15% of them were active in at least one assay; those are over-represented in the sample as a whole.
Recorded endpoint: growth inhibition (%)
# value in %; strip the unit string

Solved cases below.
{"Compound": "Cn1c2nc3ccccc3c-2nc2ccccc21", "Recorded endpoint": "growth inhibition", "Result value": 83}
{"Compound": "CCC(c1ccc(O)cc1)C(CC)c1ccc(OCCN)cc1 (configuration not stated)", "Recorded endpoint": "growth inhibition", "Result value": 6}
{"Compound": "Cc1ccc2c(ccc(/C=C/c3ccc(O)c4ncccc34)[n+]2C)c1", "Recorded endpoint": "growth inhibition", "Result value": 53}

Kindly note the recorded growth inhibition for `Cc1ccc(Nc2c3c(c(C#N)c4nc5ccccc5n24)CCCC3)cc1` , which is 59

Kindly note the recorded growth inhibition for `N#CC(=C1C=CC(=NO)C=C1)c1ccccc1` , which is 99

Kindly note the recorded growth inhibition for `ClCCn1c(CCl)nc2ccc(Cl)cc21` , which is 8

Kindly note the recorded growth inhibition for `Nc1ccc(S(=O)(=O)Nc2ccc(Nc3c4ccccc4nc4ccccc34)cc2)cc1` , which is -38

Kindly note the recorded growth inhibition for `CCOC(=O)[C@]1(Br)CC[C@@]1(Br)C(=O)OCC` , which is 6

Kindly note the recorded growth inhibition for `O=C(/C=C\c1ccc([N+](=O)[O-])o1)Nc1ccc(Cl)cc1` , which is 99

These measurements were taken from PubChem BioAssay (NCI).
